- assay-remarks: Optical properties: absorption and fluorescence emission spectra
- Assay type: physicochemical
- experimental-context: CHCl3
Recorded fwhm (full width at half maximum height) by entry
observed-property: fwhm (full width at half maximum height)

compound="CCCCC(CCCC)Oc1cc(C)c(C2=C3C=c4sc(C)cc4=[N+]3[B-](F)(F)n3c2cc2sc(C)cc23)c(C)c1 [Fluorescent Compound 3]" observed_property="fwhm (full width at half maximum height)" readout_value="20 nm"
compound="COc1ccc(-c2cc3c(o2)=CC2=Cc4cc5oc(-c6ccc(OC)cc6)cc5n4[B-](F)(F)[N+]=32)cc1 [Fluorescent Compound 6]" observed_property="fwhm (full width at half maximum height)" readout_value="24 nm"
compound="CCCCC(CCCC)Oc1cc(C)c(C2=C3C=c4oc(-c5ccc(OC)cc5)cc4=[N+]3[B-](F)(F)n3c2cc2oc(-c4ccc(OC)cc4)cc23)c(C)c1 [Fluorescent Compound 5]" observed_property="fwhm (full width at half maximum height)" readout_value="28 nm"
compound="COc1ccc(OC)c(-c2cc3c(o2)=CC2=Cc4cc5oc(-c6cc(OC)ccc6OC)cc5n4[B-](F)(F)[N+]=32)c1 [Fluorescent Compound 7]" observed_property="fwhm (full width at half maximum height)" readout_value="24 nm"

* * *

- assay-remarks: Optical properties: absorption and fluorescence emission spectra
- Type: physicochemical
- experimental-context: CHCl3
observed-property: λflu (maximum fluorescence wavelength) (nm)

record_smiles=COc1ccc(-c2cc3c(o2)=CC2=Cc4cc5oc(-c6ccc(OC)cc6)cc5n4[B-](F)(F)[N+]=32)cc1 observed_property="λflu (maximum fluorescence wavelength)" value_units=nm readout_value=683
record_smiles=CCCCC(CCCC)Oc1cc(C)c(C2=C3C=c4sc(C)cc4=[N+]3[B-](F)(F)n3c2cc2sc(C)cc23)c(C)c1 observed_property="λflu (maximum fluorescence wavelength)" value_units=nm readout_value=596
record_smiles=CCCCC(CCCC)Oc1cc(C)c(C2=C3C=c4oc(-c5ccc(OC)cc5)cc4=[N+]3[B-](F)(F)n3c2cc2oc(-c4ccc(OC)cc4)cc23)c(C)c1 observed_property="λflu (maximum fluorescence wavelength)" value_units=nm readout_value=685
record_smiles=COc1ccc(OC)c(-c2cc3c(o2)=CC2=Cc4cc5oc(-c6cc(OC)ccc6OC)cc5n4[B-](F)(F)[N+]=32)c1 observed_property="λflu (maximum fluorescence wavelength)" value_units=nm readout_value=688

The origin of these recorded values is patent US8193350B2.
